What IC50 was measured for each of the following?
assay: Cell cytotoxicity assay on CEM cells; assay type: cell-based; conditions: human, read-out: Cytotoxity (ID50, μM) CEM

Please review the entries below; each comes with its answer.
O=C(OCCCOCc1ccccc1)c1cc2ccc3c(c2c(-c2ccc4c(c2)OCO4)c1COCc1ccccc1)OCO3	> 50 µM
O=C1OC(=O)c2c1cc1ccc3c(c1c2-c1ccc2c(c1)OCO2)OCO3	> 50 µM
CN1C(=O)c2cc3ccc4c(c3c(-c3ccc5c(c3)OCO5)c2C1=O)OCO4	> 100 µM

Now for the molecule whose IC50 we want.
Q: Item under review: O=C(O)c1cc2ccc3c(c2c(-c2ccc4c(c2)OCO4)c1C(=O)O)OCO3 . Reported IC50?
Ans: > 100 µM

Reference source for all entries: patent US7754718B2
